# System: Staph UC76
# Protocol: Minimal Inhibitory Concentration, Staph UC76
# Format: cell-based
# Setup conditions: sodium salt
Listing of entries alongside the reported MIC.
A number alone suffices; assume µg/mL.

Query (compound): CC(=O)N[C@@H](CCC(N)=O)C(=O)Nc1ccc2c(=O)c(C(=O)N[C@@H](C(=O)NC3C(=O)N4C(C(=O)O)=C(CSc5nnnn5C)CSC34)c3ccc(O)cc3)c[nH]c2c1 (stereo partly drawn) ; field requested: MIC
3.1

Query (compound): CC(=O)N[C@@H](C)C(=O)Nc1ccc2c(=O)c(C(=O)N[C@@H](C(=O)NC3C(=O)N4C(C(=O)O)=C(COC(C)=O)CSC34)c3ccc(O)cc3)c[nH]c2c1 (stereo partly drawn) ; field requested: MIC
3.1

Query (compound): CC(=O)N[C@@H](C)C(=O)Nc1ccc2[nH]c(=O)c(C(=O)N[C@@H](C(=O)NC3C(=O)N4C(C(=O)O)=C(COC(C)=O)CSC34)c3ccc(O)cc3)cc2c1 (stereo partly drawn) ; field requested: MIC
3.1

---

# System: E. Coli Brig
# Protocol: Minimal Inhibitory Concentration, E. Coli Brig
# Format: cell-based
# Setup conditions: Escherichia coli, sodium salt
Endpoint name: MIC (µg/mL)
A number alone suffices; assume µg/mL.

Below are worked cases with known answers.
Molecule | Units | MIC
CC(=O)N[C@@H](C)C(=O)Nc1ccc2[nH]c(=O)c(C(=O)N[C@@H](C(=O)NC3C(=O)N4C(C(=O)O)=C(COC(C)=O)CSC34)c3ccc(O)cc3)cc2c1 (some centres unmarked) | µg/mL | 50
CC(=O)N[C@@H](C)C(=O)Nc1ccc2[nH]cc(C(=O)N[C@@H](C(=O)NC3C(=O)N4C(C(=O)O)=C(CSc5nnnn5C)CSC34)c3ccccc3)c(=O)c2c1 (some centres unmarked) | µg/mL | 12.5

Query (molecule): Cn1nnnc1SCC1=C(C(=O)O)N2C(=O)C(NC(=O)[C@H](NC(=O)c3c[nH]c4cc(NC(=O)[C@@H]5CCC(=O)N5)ccc4c3=O)c3ccccc3)C2SC1 (some centres unmarked) ; field requested: MIC
6.3

Query (molecule): CC(=O)N[C@@H](C)C(=O)Nc1ccc2c(=O)c(C(=O)N[C@@H](C(=O)NC3C(=O)N4C(C(=O)O)=C(COC(C)=O)CSC34)c3ccc(O)cc3)c[nH]c2c1 (some centres unmarked) ; field requested: MIC
12.5
